B1: FUT8 (parent)
chain: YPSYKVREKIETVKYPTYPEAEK

# Variants of: B1
# protocol: protein stability index of a GFP-peptide fusion (GPS, HEK-293T) (PSI 1-6); higher = more stable;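 further: lentivirally expressed fusions sorted by FACS into six bins by GFP to DsRed ratio, PSI derived from sequencing read proportions per bin multiplied by bin number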
# protocol_conditions: c terminus: native
Quick list: protein stability index per entry.

monomer_sequence	measured_attribute	reading
YPSYKVREKIETVKYPTYPRAEK	protein stability index	3.63
YPSYKVREKIETVKYPTYPEDEK	protein stability index	4.34

Query: protein stability index; subject: YLSYKVREKIETVKYPTYPEAEK
3.84

Query: protein stability index; subject: YPSYKVRLKIETVKYPTYPEAEK
1.99
